Exercise: state measured MIC for each of the compounds provided.
System: E. faecalis ATCC29212
Assay: MIC, microdilution broth method (NCCLS)
Type: cell-based
Settings: C: E. faecalis ATCC29212, 35° C., 16-20 hours
Description: Minimal inhibitory concentration (MIC) has been an indicator of in vitro antibacterial activity widely used in the art. The in vitro antimicrobial activity of the compounds was determined by the microdilution broth method following the test method from the National Committee for Clinical Laboratory Standards (NCCLS). […] Following inoculation of the microdilution trays, the trays are incubated at 35° C. for 16-20 hours and then read. […]
Give the value in µg/mL but do not write µg/mL after it.

Recorded MIC of CC[C@H]1OC(=O)[C@H](C)C(=O)[C@H](C)[C@@H](O[C@@H]2O[C@H](C)C[C@H](N(C)C)[C@H]2O)[C@](C)(OC(=O)NCc2ccc(-c3ncccn3)cc2)C[C@@H](C)C(=O)[C@H](C)[C@H]2NC(=O)O[C@@]21C [Compound 31] , please.
0.06

Next entry: CC[C@H]1OC(=O)[C@H](C)C(=O)[C@H](C)[C@@H](O[C@@H]2O[C@H](C)C[C@H](N(C)C)[C@H]2O)[C@](C)(OC(=O)NC/C=C/c2ccc(-c3ncccn3)cc2F)C[C@@H](C)C(=O)[C@H](C)[C@H]2NC(=O)O[C@@]21C [Compound 88]
0.06

Next entry: CC[C@H]1OC(=O)[C@H](C)C(=O)[C@H](C)[C@@H](O[C@@H]2O[C@H](C)C[C@H](N(C)C)[C@H]2O)[C@](C)(OC(=O)NC/C=C/c2ccc(-c3ncccn3)cc2)C[C@@H](C)C(=NO)[C@H](C)[C@H]2NC(=O)O[C@@]21C [Compound 133]
0.25

Next entry: CCC1OC(=O)C(C)(F)C(=O)C(C)C(OC2OC(C)CC(N(C)C)C2O)C(C)(OC(=O)NCC=Cc2ccc3ncccc3c2)CC(C)C(=O)C(C)C2NC(=O)OC12C (stereo not shown) [Compound 90]
0.06

====

test system: E. faecalis ATCC29212; test: MIC, microdilution broth method (NCCLS); assay type: cell-based; details: C: E. faecalis ATCC29212, 35° C., 16-20 hours
Exercise: state measured MIC for each of the molecules provided.
Please answer using the number first and the unit second.

Recorded MIC of CC[C@H]1OC(=O)[C@H](C)C(=O)[C@H](C)[C@@H](O[C@@H]2O[C@H](C)C[C@H](N(C)C)[C@H]2O)[C@](C)(OC(=O)NCc2cccc(-c3ccccn3)c2)C[C@@H](C)C(=O)[C@H](C)[C@H]2NC(=O)O[C@@]21C [Compound 37] , please.
0.12 µg/mL

Next entry: CCC1OC(=O)C(C)(F)C(=O)C(C)C(OC2OC(C)CC(N(C)C)C2O)C(C)(OC(=O)NCc2ccc(-c3ncccn3)cc2)CC(C)C(=NO)C(C)C2NC(=O)OC12C (stereo not shown) [Compound 128]
2 µg/mL

Next entry: CC[C@H]1OC(=O)[C@H](C)C(=O)[C@H](C)[C@@H](O[C@@H]2O[C@H](C)C[C@H](N(C)C)[C@H]2O)[C@](C)(OC(=O)NC/C=C/c2ccc(-n3cncn3)cc2)C[C@@H](C)C(=O)[C@H](C)[C@H]2NC(=O)O[C@@]21C [Compound 20]
0.06 µg/mL

Next entry: CC[C@H]1OC(=O)[C@H](C)C(=O)[C@H](C)[C@@H](O[C@@H]2O[C@H](C)C[C@H](N(C)C)[C@H]2O)[C@](C)(OC(=O)NC/C=C/c2ccc(Br)nc2)C[C@@H](C)C(=O)[C@H](C)[C@H]2NC(=O)O[C@@]21C [Compound 72]
0.06 µg/mL
